Tested on: CD8+ T cells
Experiment: In vitro immunogenicity of HLA-A*2402 restricted TUMAPs: priming of CD8+ T cells with pMHC/anti-CD28 coated beads (aAPC), multimer staining
Format: cell-based, human
Conditions: HLA-A*2402 peptides; healthy donors; three stimulation cycles; at least four donors evaluable
result-type: Donors positive/evaluable [%] (%)
Reply numerically in %, unit not repeated.

Examples with answers:
[[record]]
macromolecule_sequence = "VYLLNSTTL (listed as Homo sapiens) [CLCN3-001]"
result_number = 33

[[record]]
macromolecule_sequence = "VFIFKGNQF (listed as Homo sapiens) [MMP3-001]"
result_number = 11

[[record]]
macromolecule_sequence = "RYLPKGFLNQF (listed as Homo sapiens) [PTK2-001]"
result_number = 17

[[record]]
macromolecule_sequence = "QYIDKLNEL (listed as Homo sapiens) [CCDC88A-001]"
result_number = 0

[[record]]
macromolecule_sequence = "LYQILQGIVF (listed as Homo sapiens) [CDC2-001]"
result_number = 83

[[record]]
macromolecule_sequence = "SYLQAANAL (listed as Homo sapiens) [COL6A3-001]"
result_number = 0

[[record]]
macromolecule_sequence = "RFLSGIINF (listed as Homo sapiens) [NUF2-002]"
result_number = 50

[[record]]
macromolecule_sequence = "VYNPTPNSL (listed as Homo sapiens) [COL12A1-001]"
result_number = 0


## Task What does the record list as Donors positive/evaluable [%] for SYQKVIELF (listed as Homo sapiens) [PBK-001] ?
## Result 0

## Task Which Donors positive/evaluable [%] value belongs to QYASRFVQL (listed as Homo sapiens) [PLK4-001] ?
## Result 60

----------
System: CD8+ T cells
Assay: In vitro immunogenicity of HLA-A*2402 restricted TUMAPs: priming of CD8+ T cells with pMHC/anti-CD28 coated beads (aAPC), multimer staining
Assay type: cell-based, human
Settings: HLA-A*2402 peptides; healthy donors; three stimulation cycles; at least four donors evaluable
Quick reference for Donors positive/evaluable [%] among some sequences
Give your result in % as a bare value.

Illustrative cases are given below, each with its answer.
[[record]]
macromolecule_sequence = "SYATLLHVL (listed as Homo sapiens) [GPR39-001]"
tested_on = "CD8+ T cells"
result_number = 50

[[record]]
macromolecule_sequence = "MYMTVSIIDRF (listed as Homo sapiens) [CCNB1-003]"
tested_on = "CD8+ T cells"
result_number = 33


## Task Param readout = Donors positive/evaluable [%]; param system = CD8+ T cells; param query = SYNPLWLRI (listed as Homo sapiens) [ASPM-002] ; response: value
## Result 67

## Task Donors positive/evaluable [%] of KYLTVKDYL (listed as Homo sapiens) [ATAD2-002] on CD8+ T cells?
## Result 17

## Task Fill in the recorded Donors positive/evaluable [%] for this sequence, with CD8+ T cells as test system: YYKNIGLGF (listed as Homo sapiens) [RPS11-001]
## Result 17

## Task Missing value: Donors positive/evaluable [%], CD8+ T cells, entry YYNAAGFNKL (listed as Homo sapiens) [UQCRB-001] . Fill in?
## Result 83

## Task Please state recorded Donors positive/evaluable [%] (tested on CD8+ T cells) of NYLLYVSNF (listed as Homo sapiens) [MST1R-001]
## Result 50

## Task Kindly state the measured Donors positive/evaluable [%] obtained for VYIEKNDKL (listed as Homo sapiens) [ERBB3-001] with CD8+ T cells.
## Result 83

## Task So what Donors positive/evaluable [%] did NYLPFIMEL (listed as Homo sapiens) [UCHL5-001] get with CD8+ T cells?
## Result 75

## Task Look up Donors positive/evaluable [%] with CD8+ T cells for this sequence: VYISSLALL (listed as Homo sapiens) [PSMD14-001]
## Result 17

----------
System: CD8+ T cells
Assay: In vitro immunogenicity of HLA-A*2402 restricted TUMAPs: priming of CD8+ T cells with pMHC/anti-CD28 coated beads (aAPC), multimer staining
Assay type: cell-based, human
Conditions: HLA-A*2402 peptides; healthy donors; three stimulation cycles; at least four donors evaluable
result-type: Donors positive/evaluable [%]
Include the unit right after the number.

[[record]]
macromolecule_sequence = "VYTTMAEHF (listed as Homo sapiens) [TSPAN1-002]"
tested_on = "CD8+ T cells"
result = "17%"

[[record]]
macromolecule_sequence = "SYLELVKSL (listed as Homo sapiens) [SDHC-001]"
tested_on = "CD8+ T cells"
result = "33%"

[[record]]
macromolecule_sequence = "IYAPKLQEF (listed as Homo sapiens) [CCNE2-001]"
tested_on = "CD8+ T cells"
result = "0%"

[[record]]
macromolecule_sequence = "SYNVTSVLF (listed as Homo sapiens) [LCN2-001]"
tested_on = "CD8+ T cells"
result = "17%"


Kindly consider the entry below.
## Task Quick one: Donors positive/evaluable [%] for NYEETFPHI (listed as Homo sapiens) [MUC6-001] ?
## Result 83%

----------
The following sequences are listed with their measured Donors positive/evaluable [%] values.
Test system: CD8+ T cells
Assay: In vitro immunogenicity of HLA-A*2402 restricted TUMAPs: priming of CD8+ T cells with pMHC/anti-CD28 coated beads (aAPC), multimer staining
Type: cell-based, human
Settings: HLA-A*2402 peptides; healthy donors; three stimulation cycles; at least four donors evaluable
Just the number please, in %, no unit attached.

Some entries whose results are on file:
[[record]]
macromolecule_sequence = "RYLPQCSYF (listed as Homo sapiens) [CCND2-001]"
result_number = 17

[[record]]
macromolecule_sequence = "TYGNLLDYL (listed as Homo sapiens) [ABL1-001]"
result_number = 83

[[record]]
macromolecule_sequence = "VYFSKSEQL (listed as Homo sapiens) [EPHA2-005]"
result_number = 0

[[record]]
macromolecule_sequence = "LYPEVFEKF (listed as Homo sapiens) [ATAD2-003]"
result_number = 0


Now for the sequence whose Donors positive/evaluable [%] we want.
## Task I'd like to know its Donors positive/evaluable [%]. The sequence in question is IYNGKLFDLL (listed as Homo sapiens) [KIF2C-001]
## Result 17

----------
Test system: CD8+ T cells
Assay: In vitro immunogenicity of HLA-A*2402 restricted TUMAPs: priming of CD8+ T cells with pMHC/anti-CD28 coated beads (aAPC), multimer staining
Format: cell-based, human
Settings: HLA-A*2402 peptides; healthy donors; three stimulation cycles; at least four donors evaluable
Documented Donors positive/evaluable [%] across a set of sequences
Numbers only; they are read as %.

Example cases with answers are listed next.
[[record]]
macromolecule_sequence = "SYIDVLPEF (listed as Homo sapiens) [MET-006]"
result_type = "Donors positive/evaluable [%]"
uom = "%"
result_number = 67

[[record]]
macromolecule_sequence = "VYKVVGNLL (listed as Homo sapiens) [IQGAP3-001]"
result_type = "Donors positive/evaluable [%]"
uom = "%"
result_number = 100

[[record]]
macromolecule_sequence = "RYLEGTSCI (listed as Homo sapiens) [EPPK1-001]"
result_type = "Donors positive/evaluable [%]"
uom = "%"
result_number = 17

[[record]]
macromolecule_sequence = "IFSKIVSLF (listed as Homo sapiens) [EIF2S3-001]"
result_type = "Donors positive/evaluable [%]"
uom = "%"
result_number = 17

[[record]]
macromolecule_sequence = "DYTIGFGKF (listed as Homo sapiens) [ITGB4-001]"
result_type = "Donors positive/evaluable [%]"
uom = "%"
result_number = 67

[[record]]
macromolecule_sequence = "VYTTSYQQI (listed as Homo sapiens) [NFYB-001]"
result_type = "Donors positive/evaluable [%]"
uom = "%"
result_number = 50


## Task Fill in: Donors positive/evaluable [%] of LYLENIDEF (listed as Homo sapiens) [POLD3-001] is ___
## Result 67

## Task Using the record for AYLVYTDRL (listed as Homo sapiens) [PPAP2C-001] , report its Donors positive/evaluable [%].
## Result 83

## Task So what's the measured Donors positive/evaluable [%] for this one? DYAYLREHF (listed as Homo sapiens) [ZNF598-001]
## Result 83

## Task Item under review: AYAIIKEEL (listed as Homo sapiens) [ATAD2-001] . Reported Donors positive/evaluable [%]?
## Result 33

----------
Tested on: CD8+ T cells
Test: In vitro immunogenicity of HLA-A*2402 restricted TUMAPs: priming of CD8+ T cells with pMHC/anti-CD28 coated beads (aAPC), multimer staining
Assay type: cell-based, human
Conditions: HLA-A*2402 peptides; healthy donors; three stimulation cycles; at least four donors evaluable
Measured Donors positive/evaluable [%] of individual entries
Just the number please, in %, no unit attached.

[[record]]
macromolecule_sequence = "IYLEVIHNL (listed as Homo sapiens) [DNAJC10-001]"
uom = "%"
result_number = 50

[[record]]
macromolecule_sequence = "SYIIDPLNL (listed as Homo sapiens) [PROM1-001]"
uom = "%"
result_number = 83

[[record]]
macromolecule_sequence = "VWSDVTPLTF (listed as Homo sapiens) [MMP11-001]"
uom = "%"
result_number = 33

[[record]]
macromolecule_sequence = "KYNDTFWKEF (listed as Homo sapiens) [HSP90B1-001]"
uom = "%"
result_number = 50

[[record]]
macromolecule_sequence = "IYPDASLLI (listed as Homo sapiens) [CEA-010]"
uom = "%"
result_number = 40


## Task Query (sequence): RYLWATVTI (listed as Homo sapiens) [ASPM-001] ; field requested: Donors positive/evaluable [%]
## Result 17

## Task Given the sequence FYQPKIQQF (listed as Homo sapiens) [FANCI-001] , what is its reported Donors positive/evaluable [%]?
## Result 17

## Task What does the data say about its Donors positive/evaluable [%]? Entry: YYYVGFAYL (listed as Homo sapiens) [EIF'3L-001]
## Result 100

## Task Fill blank: measured Donors positive/evaluable [%] of the sequence VYGIRLEHF (listed as Homo sapiens) [NUF2-001] is ____.
## Result 100
